Where these numbers come from: PubChem BioAssay

For each of the compounds below, state its z-score.
EXPERIMENTAL DETAILS: ATP-based viability of Huh7 replicon cells – cell-based, CellTiter-Glo luminescence, basal, 48 h, cytotoxicity control for HCV replication inhibitor project, primary screen (AID 1143);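 also: Huh7 hepatoma cells carrying a hepatitis C replication reporter with no stimulus; test concentration not given here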
MEASUREMENT CONDITIONS: higher = more signal, called active from +8 up or from −8 down
Please state the value as a number alone, without comment.

Briefly, z-score measured for Cc1ccc(N2C(=O)c3ccccc3[C@@H](C(=O)NC(C)C)[C@@H]2c2ccc(CO)cc2)nc1 : -2.73

Briefly, z-score measured for CCCCN1CC=CC23O[C@@H]4/C=C\CCCOC(=O)C4[C@H]2C(=O)N(C(C)CO)[C@@H]3C1=O (some centres undefined) : 0.33

Briefly, z-score measured for CCN(CC)c1ccc(N2CC=CC34O[C@@H]5/C=C\CCCOC(=O)C5[C@H]3C(=O)N(CCCO)[C@@H]4C2=O)cc1 (some centres undefined) : 0.273

Briefly, z-score measured for [N-]=[N+]=NCc1ccccc1C[C@]1(C(=O)NCc2ccccc2)COC(c2ccc(OCCCO)cc2)=N1 : -5.27
